molecular target: HLA-A*0101 (human); assay: competition, purified HLA
pIC50: −log10 of the molar value.
Tag: t if measured pIC50 is not below 6, f if it is.

KTLYQSNPY (modifications not checked) | f
RQAKQHTCY (modifications not checked) | f
YTAGPGPGY (modifications not checked) | t
ISEYRHYQY (modifications not checked) | t

QUERY: Check if pIC50 >= 6 (inclusive). Item: EVGPGPGLY (modifications not checked)
RESULT: t

QUERY: API: above_or_equal(metric=pIC50, cutoff=6) for item AADAAAAKY (modifications not checked)
RESULT: t

QUERY: Reported pIC50 at or above 6? EYRHYNYSLY (modifications not checked)
RESULT: f

QUERY: Quick check: does RQDILDLWVY (modifications not checked) have pIC50 greater than or equal to 6?
RESULT: f

QUERY: Identify whether the reported pIC50 of the following binder is 6 or greater: FTDLRIVY (modifications not checked)
RESULT: t

QUERY: In plain terms: is recorded pIC50 at least 6 for ATSNYYIVTY (modifications not checked) ?
RESULT: t

QUERY: Exam item: decide whether the reported pIC50 for RFLSKISEY (modifications not checked) is at least 6.
RESULT: f
